- measurement_description: Solubility in water
- Assay type: physicochemical
So I've got a bunch of compounds here, and I need their solubility values.

COc1ccc(-c2c(-c3cc(Br)c(OC)c(OC)c3)ncn2C)cc1N [compound 6b]    > 10 mg/mL

Now turn to the next compound.
Data request, read-out solubility, for COc1ccc(-c2c(-c3cc(Cl)c(OC)c(OC)c3)ncn2C)cc1N [compound 5b]
> 10 mg/mL

###

- System: NHDF fibroblasts
- measurement_description: Cytotoxicity, NHDF
- Format: cell-based
- reported_conditions: Homo sapiens; NHDF fibroblasts (non-malign)
value_type: pIC50
One number for each entry, as −log10 of the molar value.

Here's what some known entries look like.
COc1ccc(-c2ncn(C)c2-c2cc(Br)c(OC)c(Br)c2)cc1F    6.40
COc1ccc(-c2c(-c3cc(OC)c(OC)c(OC)c3)ncn2C)cc1N [compound 25f, reference compound]    6.87
COc1ccc(-c2ncn(C)c2-c2cc(Br)c(OC)c(OC)c2)cc1F    6.76

Now turn to the next compound.
Data request, read-out pIC50, for COc1ccc(-c2ncn(C)c2-c2cc(I)c(OC)c(I)c2)cc1F
5.48

###

- measurement_description: Solubility in physiological saline solution
- Format: physicochemical
- reported_conditions: saline or isotonic, read-out: concentration achieved in physiological saline solution
value_type: solubility

Data request, read-out solubility, for COc1ccc(-c2c(-c3cc(Cl)c(OC)c(OC)c3)ncn2C)cc1N
≥ 10 mM

###

- System: L929 fibroblasts
- measurement_description: Cytotoxicity, L929
- Assay type: cell-based
- reported_conditions: Mus musculus, read-out: IC50 L-929
value_type: pIC50
Give bare numbers, as −log10 of the molar value.

COc1ccc(-c2ncn(C)c2-c2cc(Br)c(OC)c(OC)c2)cc1F    7.62
COc1ccc(-c2ncn(C)c2-c2cc(Br)c(OC)c(Br)c2)cc1F    4.66
COc1ccc(-c2ncn(C)c2-c2cc(I)c(OC)c(I)c2)cc1F    7.74

Now turn to the next compound.
Data request, read-out pIC50, for COc1ccc(-c2c(-c3cc(OC)c(OC)c(OC)c3)ncn2C)cc1N [compound 25f, reference compound]
6.67

###

- Test system: 518A2 cells
- measurement_description: Mitochondrial membrane assay (JC-1), 518A2
- Type: cell-based, human
- reported_conditions: 5 μM, red/green fluorescence ratio relative to untreated controls (100%), mean ± SD
So I've got a bunch of compounds here, and I need their Intact mitochondria [%] in 518A2 cells after 72 h values.
One number for each entry, in %.

COc1ccc(-c2c(-c3cc(N)c(OC)c(OC)c3)ncn2C)cc1O [8c]    94

Give one value of Intact mitochondria [%] in 518A2 cells after 72 h per listed compound.
1. COc1ccc(-c2ocnc2-c2cc(N)c(OC)c(OC)c2)cc1N [compound 8a]
2. COc1ccc(-c2c(-c3cc(Br)c(OC)c(OC)c3)ncn2C)cc1F [compound 6c]
3. COc1ccc(-c2c(-c3cc(N)c(OC)c(OC)c3)ncn2C)cc1F [8d]
4. COc1ccc(-c2c(-c3cc(OC)c(OC)c(OC)c3)ncn2C)cc1N [compound 25f, reference compound]
5. COc1ccc(-c2c(-c3cc(Cl)c(OC)c(OC)c3)ncn2C)cc1F [compound 5c]
6. COc1cc(-c2ncn(C)c2-c2ccc3c(c2)c(Cl)cn3C)cc(N)c1OC [compound 8e]

[85, 89, 98, 87, 84, 77]

Give one value of Intact mitochondria [%] in 518A2 cells after 72 h per listed compound.
1. COc1cc(-c2ncoc2-c2ccc(N(C)C)cc2)cc(N)c1OC [8b]
2. COc1cc(-c2ncn(C)c2-c2ccc(N(C)C)cc2)cc(Br)c1OC [compound 6d]
3. COc1ccc(-c2c(-c3cc(Cl)c(OC)c(OC)c3)ncn2C)cc1N [compound 5b]
4. COc1cc(-c2ncn(C)c2-c2ccc(N(C)C)cc2)cc(Cl)c1OC [compound 5d]
5. COc1ccc(-c2c(-c3cc(Br)c(OC)c(OC)c3)ncn2C)cc1N [compound 6b]

[82, 82, 80, 80, 80]

###

- Test system: PC-3 prostata cancer
- measurement_description: Cytotoxicity, PC-3
- Format: cell-based
value_type: pIC50
Give bare numbers, as −log10 of the molar value.

COc1ccc(-c2ncn(C)c2-c2cc(Br)c(OC)c(Br)c2)cc1F    8.00

Give one value of pIC50 per listed compound.
1. COc1ccc(-c2c(-c3cc(OC)c(OC)c(OC)c3)ncn2C)cc1N [compound 25f, reference compound]
2. COc1ccc(-c2ncn(C)c2-c2cc(I)c(OC)c(I)c2)cc1F

[7.05, 8.48]
